B1: TPR t1 (parent)
chain: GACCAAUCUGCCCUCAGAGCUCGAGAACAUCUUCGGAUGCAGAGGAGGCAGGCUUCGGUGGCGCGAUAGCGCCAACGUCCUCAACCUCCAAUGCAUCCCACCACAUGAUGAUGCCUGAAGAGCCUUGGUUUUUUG

variants of: B1; test: polymerase ribozyme fitness, log enrichment relative to wild type (log ratio); higher = more active; in vitro selection for triplet polymerase activity
Endpoint: polymerase ribozyme fitness (log ratio)

{"Variant id": "C72A G93C C102G", "polymerase ribozyme fitness (log ratio)": -6.8}

Dear colleague, I am looking for the recorded polymerase ribozyme fitness (log ratio) of the following variant: C13A C34A G69A U96A C115A
-7.14

Dear colleague, I am looking for the recorded polymerase ribozyme fitness (log ratio) of the following variant: C8G U14A U55G C73G C97A
-4.31

Dear colleague, I am looking for the recorded polymerase ribozyme fitness (log ratio) of the following variant: C56G U59G C97A
-5.51
